Target: UniProtKB P16610
Sequence (P16610 whole entry): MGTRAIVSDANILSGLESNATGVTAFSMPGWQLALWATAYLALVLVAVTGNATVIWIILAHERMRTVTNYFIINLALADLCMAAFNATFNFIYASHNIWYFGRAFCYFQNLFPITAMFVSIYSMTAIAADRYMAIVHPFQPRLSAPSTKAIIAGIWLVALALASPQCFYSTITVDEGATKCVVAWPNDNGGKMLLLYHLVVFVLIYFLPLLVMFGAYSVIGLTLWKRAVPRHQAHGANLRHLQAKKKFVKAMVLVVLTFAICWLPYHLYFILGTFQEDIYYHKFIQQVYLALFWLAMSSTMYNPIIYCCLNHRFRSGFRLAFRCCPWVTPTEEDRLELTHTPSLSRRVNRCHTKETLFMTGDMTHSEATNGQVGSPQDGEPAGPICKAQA
Test: cell-based
Experimental: The capacity of the peptides described in the present invention of interacting with the neurokinin A receptor as agonists or antagonists was evaluated by means of an in vitro assay using a preparation, in which the biological response produced by tachykinin and related peptides is exclusively determined by the neuro-kinin A receptor (NK-2 receptor). […]
Non-standard residues stand in square brackets, D forms with d. Residues, ends and D or L forms follow the SMILES beside them.
METRIC: Kb (nM)
Report the figure in nM without appending any unit label.

INSERT INTO assay_data (compound, target_system, unit_abbreviation, assay_value) VALUES
  ('CC(C)[C@H](NC(=O)[C@@H](Cc1c[nH]c2ccccc12)NC(=O)[C@H](Cc1ccc(O)cc1)NC(=O)[C@@H](N)CC(=O)O)C(=O)N[C@H](Cc1c[nH]c2ccccc12)C(=O)N[C@H](Cc1c[nH]c2ccccc12)C(=O)N[C@H](Cc1c[nH]c2ccccc12)C(N)=O [H-Asp-Tyr-DTrp-Val-DTrp-DTrp-DTrp-NH2] (H-DY[dW]V[dW][dW][dW]-NH2)', 'UniProtKB P16610', 'nM', 155);

As a next step, examine the compound that follows.
Return reported Kb for target or system UniProtKB P16610, item CC(C)[C@H](NC(=O)[C@@H](Cc1c[nH]c2ccccc12)NC(=O)[C@H](Cc1ccc(O)cc1)NC(=O)[C@@H](N)CC(=O)O)C(=O)N[C@H](Cc1c[nH]c2ccccc12)C(=O)N[C@H](Cc1c[nH]c2ccccc12)C(=O)N[C@@H](Cc1ccc(O)cc1)C(N)=O (H-DY[dW]V[dW][dW]Y-NH2) . 191
